target: canine TRPM8 (Canis lupus familiaris); assay: In Vitro Canine TRPM8 Functional Assay (Ca2+ fluorescence, icilin activation); type: cell-based; conditions: compound at 0.2 μM; canine TRPM8, icilin activation; read-out: % Inh @ 0.2
Sequence (Q1A7N1 1-1104): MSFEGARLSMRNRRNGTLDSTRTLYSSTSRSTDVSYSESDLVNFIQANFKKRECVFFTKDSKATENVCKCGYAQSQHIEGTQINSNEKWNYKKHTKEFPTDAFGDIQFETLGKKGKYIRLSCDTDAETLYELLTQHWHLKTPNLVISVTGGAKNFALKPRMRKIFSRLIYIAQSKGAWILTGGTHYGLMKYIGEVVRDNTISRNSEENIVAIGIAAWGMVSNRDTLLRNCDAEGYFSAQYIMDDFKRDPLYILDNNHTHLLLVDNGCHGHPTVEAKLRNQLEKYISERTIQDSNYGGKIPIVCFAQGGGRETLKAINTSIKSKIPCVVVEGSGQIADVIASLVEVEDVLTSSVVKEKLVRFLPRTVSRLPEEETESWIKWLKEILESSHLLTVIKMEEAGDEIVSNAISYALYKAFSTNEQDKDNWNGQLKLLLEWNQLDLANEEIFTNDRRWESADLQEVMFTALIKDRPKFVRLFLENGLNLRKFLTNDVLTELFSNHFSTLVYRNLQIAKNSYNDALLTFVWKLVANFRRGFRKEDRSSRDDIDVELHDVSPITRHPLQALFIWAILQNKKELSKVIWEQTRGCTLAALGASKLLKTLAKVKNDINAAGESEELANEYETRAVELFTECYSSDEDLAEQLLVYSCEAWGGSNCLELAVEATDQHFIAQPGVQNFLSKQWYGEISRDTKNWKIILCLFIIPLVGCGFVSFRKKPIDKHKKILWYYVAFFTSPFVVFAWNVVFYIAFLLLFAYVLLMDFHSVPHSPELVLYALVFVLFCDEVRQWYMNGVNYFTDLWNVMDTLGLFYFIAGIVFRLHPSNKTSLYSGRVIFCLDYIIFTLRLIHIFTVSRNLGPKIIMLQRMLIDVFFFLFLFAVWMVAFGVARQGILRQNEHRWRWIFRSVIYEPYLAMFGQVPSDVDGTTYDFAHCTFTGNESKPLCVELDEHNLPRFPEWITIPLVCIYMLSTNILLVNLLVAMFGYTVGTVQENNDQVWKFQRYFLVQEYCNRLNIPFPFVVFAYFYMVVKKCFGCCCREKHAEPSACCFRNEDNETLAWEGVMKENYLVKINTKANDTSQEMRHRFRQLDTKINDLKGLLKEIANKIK
# if value of inhibition at 0.2 µM reaches 90%, tag Fulfilled; if it stays below, tag Not fulfilled

{"Molecule": "O=c1[nH]c(-c2ccc(S(=O)(=O)N(CCC3CC3)c3sc4ccccc4c3Br)cc2)ns1", "Experimental system": "canine TRPM8 (Canis lupus familiaris)", "Class assignment": "Fulfilled"}

Is inhibition at 0.2 µM at least 90%? Consider `O=C(O)c1ccc(S(=O)(=O)N(CCC(F)(F)F)c2sc3ccccc3c2Cl)cc1`
Fulfilled

Ok, now `O=S(=O)(c1ccc(Br)cc1)N(CCC(F)(F)F)c1cc2ccccc2s1`
Not fulfilled

Also need `Cc1c(N(Cc2ccc(F)c(C(F)(F)F)c2)S(=O)(=O)c2ccc(-c3noc(=O)[nH]3)cc2)sc2ccccc12` , thanks.
Fulfilled

Same for `CCCCN(C1=Cc2ccccc2S1(=O)=O)S(=O)(=O)c1ccc(C(=O)OC)cc1`
Not fulfilled

`Cc1c(N(Cc2ccc(F)c(C(F)(F)F)c2)S(=O)(=O)c2ccc3c(c2)OCCN3C)sc2ccccc12` ?
Fulfilled

And `O=Cc1c(N(Cc2ccc(F)c(F)c2)S(=O)(=O)c2ccccc2)sc2ccccc12` ?
Fulfilled

What about CCCCN(c1sc2ccccc2c1C(C)O)S(=O)(=O)CC (stereo not shown) ?
Not fulfilled
